Target: AmpC β-lactamase (Escherichia coli, UniProt P00811)
Construct: Shoichet lab (UCSF), gift
Sequence (P00811 20-377): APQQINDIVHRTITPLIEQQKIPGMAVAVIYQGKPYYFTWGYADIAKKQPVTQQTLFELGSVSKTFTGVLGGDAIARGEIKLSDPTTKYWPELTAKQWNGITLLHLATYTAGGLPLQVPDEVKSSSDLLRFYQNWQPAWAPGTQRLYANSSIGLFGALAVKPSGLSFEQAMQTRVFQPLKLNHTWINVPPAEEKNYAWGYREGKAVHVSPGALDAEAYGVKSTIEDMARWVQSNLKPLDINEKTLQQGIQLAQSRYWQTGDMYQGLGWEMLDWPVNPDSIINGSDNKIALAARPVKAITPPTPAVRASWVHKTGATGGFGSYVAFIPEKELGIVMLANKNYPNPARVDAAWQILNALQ
Test: AmpC beta-lactamase non-specific enzyme inhibition assay
Format: biochemical
Conditions: IC50/μM vs. AmpC, No TX, without Triton X-100
READOUT: IC50

COMPOUND	READOUT	REPORTED MEASUREMENT
O=C(Nc1ccc(Oc2ccc(Cl)cc2)c(Cl)c1)c1cc(F)cc(F)c1O	IC50	38 µM
Cc1cc(C(C#N)c2ccc(Cl)cc2)c(Cl)cc1NC(=O)c1cc(I)cc(I)c1O (centres unmarked)	IC50	0.3 µM

---

Experiment: Pharmacokinetic (PK) studies
Details: mouse, in vivo, ip, 20 mg/kg

MOLECULE	concentration at 8 h
Cc1cc(C(C#N)c2ccc(Cl)cc2)c(Cl)cc1NC(=O)c1cc(I)cc(I)c1O (stereo not shown) [S4105]	75 to 200 µM
